Test system: C57BL/6J mice
testName: The lipid-lowering effect in C57BL/6J mice (high-fat diet)
Format: in vivo
assayConditions: 5 mg/kg orally, HFD, after 21 days
valueKind: TG (mg/dL)
One number for each entry, in mg/dL.

For orientation, consider the following solved cases.
compound	TG [mg/dL]
CCC(C)(C)C(=O)O[C@H]1C[C@@H](C)C=C2C=C[C@H](C)[C@H](CC[C@@H](O)C[C@@H](O)CC(=O)O)[C@H]21.Cn1c(=O)c2c(ncn2CCN2CCN(c3ccccc3Cl)CC2)n(C)c1=O [KMUP-1-Simvastatinic acid, KMUP-1-Simvastatinic acid complex]	81.2
CCC(C)(C)C(=O)O[C@H]1C[C@@H](C)C=C2C=C[C@H](C)[C@H](CC[C@@H]3C[C@@H](O)CC(=O)O3)[C@H]21 [Simvastatin, simvastatin, reference compound]	82.67
Cn1c(=O)c2c(ncn2CCN2CCN(c3ccccc3Cl)CC2)n(C)c1=O.O=C(O)c1cccnc1 [KMUP-1-Nicotinic acid, KMUP-1-Nicotinic acid salt]	80.75

Problem: Query: TG; subject: Cl.Cn1c(=O)c2c(ncn2CCN2CCN(c3ccccc3Cl)CC2)n(C)c1=O [KMUP-1 HCl salt]
Result: 72.67

---

Could you please report measured The change of the fasting blood glucose after administration for the items listed next?
Test system: STZ-induced diabetic rats
testName: Change of insulin and fasting blood glucose after administration, STZ-induced diabetic rats
Assay type: in vivo
assayConditions: 4 mg/kg, 6 hr
Answers are plain numbers, in mg/dL.

For orientation, consider the following solved cases.
compound	studyTarget	units	reading
Cl.Cn1c(=O)c2c(ncn2CCN2CCN(c3ccccc3Cl)CC2)n(C)c1=O [KMUP-1 HCl salt]	STZ-induced diabetic rats	mg/dL	-0.3
CC(C)[C@H]1CC[C@H](C(=O)N[C@H](Cc2ccccc2)C(=O)O)CC1.Cn1c(=O)c2c(ncn2CCN2CCN(c3ccccc3Cl)CC2)n(C)c1=O [KMUP-1-Nat, KMUP-1-Nateglinide Complex]	STZ-induced diabetic rats	mg/dL	-0.2
CCOc1cc(CC(=O)N[C@@H](CC(C)C)c2ccccc2N2CCCCC2)ccc1C(=O)O [Rep, Repaglinide, reference compound]	STZ-induced diabetic rats	mg/dL	-0.1

Would you kindly look at the next entry?
Problem: Query: The change of the fasting blood glucose after administration; subject: CC(C)[C@H]1CC[C@H](C(=O)N[C@H](Cc2ccccc2)C(=O)O)CC1 [Nat, Nateglinide, reference compound]
Result: -0.2

Data origin, for the record: patent US8470805B2
